- tgt: Urotensin-2 receptor (Homo sapiens)
- Sequence (Q9UKP6 whole entry): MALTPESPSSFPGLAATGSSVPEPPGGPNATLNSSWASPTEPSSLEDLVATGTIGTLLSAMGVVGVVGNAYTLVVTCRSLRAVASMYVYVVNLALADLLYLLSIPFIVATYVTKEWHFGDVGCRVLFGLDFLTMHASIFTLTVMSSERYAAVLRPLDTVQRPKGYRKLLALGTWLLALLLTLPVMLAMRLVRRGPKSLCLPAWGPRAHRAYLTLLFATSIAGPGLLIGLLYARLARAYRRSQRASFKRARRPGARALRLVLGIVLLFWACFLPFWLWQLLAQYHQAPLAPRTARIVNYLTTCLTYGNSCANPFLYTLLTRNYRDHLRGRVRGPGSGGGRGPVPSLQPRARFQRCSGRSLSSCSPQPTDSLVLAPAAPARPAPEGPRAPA
- test: Agonist activity at human UT receptor expressed in HEK293 cells co-expressing beta-arrestin1-polycistronic BRET biosensor assessed as induction of beta-arrestin1 recruitment measured for 5 mins by luminescence detection based BRET assay
- Format: functional, cell-based
Recorded measurements of EC50, one per entry

| compoundSmiles | EC50 / nM |
| --- | --- |
| CC(C)[C@H](NC(=O)[C@@H]1CSSC[C@H](NC(=O)[C@H](C)N)C(=O)N[C@@H](Cc2ccc(I)cc2)C(=O)N[C@@H](Cc2c[nH]c3ccccc23)C(=O)N[C@@H](CCCCN)C(=O)N[C@@H](Cc2ccc(O)cc2)C(=O)N1)C(=O)O | 182 |
| CC(C)[C@H](NC(=O)[C@@H]1CSSC[C@H](NC(=O)[C@H](C)N)C(=O)N[C@@H](Cc2ccc(C#Cc3ccccc3)cc2)C(=O)N[C@@H](Cc2c[nH]c3ccccc23)C(=O)N[C@@H](CCCCN)C(=O)N[C@@H](Cc2ccc(O)cc2)C(=O)N1)C(=O)O | 759 |
| CC(C)[C@H](NC(=O)[C@@H]1CSSC[C@H](NC(=O)[C@H](C)N)C(=O)N[C@@H](Cc2ccc(-c3ccccc3)cc2)C(=O)N[C@@H](Cc2c[nH]c3ccccc23)C(=O)N[C@@H](CCCCN)C(=O)N[C@@H](Cc2ccc(O)cc2)C(=O)N1)C(=O)O | 603 |
| CC(C)[C@H](NC(=O)[C@@H]1CSSC[C@H](NC(=O)[C@@H](N)CC(=O)O)C(=O)N[C@@H](Cc2ccc(I)cc2)C(=O)N[C@@H](Cc2c[nH]c3ccccc23)C(=O)N[C@@H](CCCCN)C(=O)N[C@@H](Cc2ccc(O)cc2)C(=O)N1)C(=O)O | 191 |
